For each of the compounds below, state its melting point.

Q: Which measured melting point value corresponds to Cc1cccc(C)c1NC(=O)CN1CCN(c2ncnc3sccc23)C(C)C1 (stereo not given) ?
Result: 184 to 185 °C

Q: Tell me the measured melting point of O=C1NC(=O)C(Cc2ccc(OC[C@@H]3CCCN3c3ccccn3)cc2)S1 (stereo not given in full) , please.
Result: 78 to 80 °C

Q: // lookup melting point for CCN1CCCC1CNC(=O)c1ccc(Cl)nc1Cl (stereo not given)
Result: 73 to 74 °C

Q: Could you tell me which melting point is on file for CC1=C(C(=O)OCC=Cc2ccccc2)C(c2ccccc2C(F)(F)F)c2c(ccnc2OC(C)C)N1 (stereo not given) ?
Result: 164 to 166 °C

Q: Bench note: what melting point did `Cc1nc(-n2ccc(OCc3ccc(F)cc3)cc2=O)sc1C(=O)NCc1cccnc1` show?
Result: 231 to 233 °C

Q: Report melting point for `CCOC(=O)c1cn(-c2nonc2C)c2cc(F)c(F)cc2c1=O` please.
Result: 178 to 180 °C

Q: Which value of melting point has been reported for `CCCCCCCCCCCCCCP(=O)(OC)OC` in the records?
Result: 32 to 33 °C

Q: // melting point lookup, key: `O=c1n(CCC#Cc2cccc(CF)n2)nc2ccccn12`
Result: 106 to 107 °C

Q: // returns reported melting point for input `CCCCCCCCCCNC(=O)c1cc(C(=O)NCCCCCCCCCC)cc([N+](=O)[O-])c1`
Result: 115 to 116 °C

Q: Give the measured melting point of `ON=C1CN2[C@H]3CC[C@@H]2[C@@H]1[C@@H](c1ccc(Cl)c(Cl)c1)C3` .
Result: 45 to 52 °C

Q: So what does the record say about melting point for Cc1ccn(-c2ccc(-c3nc4cccnc4n3-c3ccc(CCNCC(O)COc4ccc(O)cc4)cc3)c(Cl)c2)n1 (stereo not given) ?
Result: 87 to 89 °C

Q: Fill in: melting point of `CP(=O)(O)CC(=O)CN` is ___
Result: 148 to 149 °C

Q: Would you kindly share the measured melting point for COc1cc(OC(C)C(=O)O)c2c3c(C(N)=O)cccc3n(Cc3ccccc3)c2c1 (stereo not given) ?
Result: 170 to 172 °C

Q: I have this compound here, `COc1cccc(/C(=C/C=C/C(=O)Oc2ccc([N+](=O)[O-])cc2)c2ccccc2)c1` , and I need its recorded melting point.
Result: 101 to 103 °C

Q: Fill in: melting point of `Cc1cccc(NC(=O)C2=C(O)c3ccc4ccccc4c3S(=O)(=O)N2C)c1` is ___
Result: 240 to 242 °C

Q: Consider the compound `O=c1[nH]ncc(N2CCN(C34CC5CC(CC(C5)C3)C4)CC2)c1Cl` and give its measured melting point.
Result: 292 to 294 °C

Q: Reported melting point for `CC(=Nc1ccc2c(c1)C(=O)c1ccc(N=C(C)N3CCC(C)CC3)cc1C2=O)N1CCC(C)CC1` : what is it?
Result: 200 to 202 °C

Q: Quick one: melting point for `C=CCn1c(=O)c(C(=O)OCC)c(N)c2ccccc21` ?
Result: 132 to 134 °C

Q: // returns reported melting point for input `Cc1nc(-n2ccc(C3CC3)cc2=O)sc1C(=O)NCc1ccccc1`
Result: 149 to 151 °C

Q: Look up melting point for this compound: `CCCc1c(OCCCOc2ccc(CC(=O)O)cc2F)ccc(C(C)=O)c1O`
Result: 121 to 123 °C

Q: May I ask what melting point has been recorded for `CC#CCOc1cc(Oc2cccc(F)c2)ncn1` ?
Result: 60.1 °C

Q: Reported melting point for O=C1c2ccccc2NC(=S)C2CCCN12 (stereo not given) : what is it?
Result: 268 to 270 °C

Q: Value lookup for melting point; key = `COc1cccc(-c2cc(=O)c3cccc(C(=O)Nc4ccc(CCCCN5CCc6cc(OC)c(OC)cc6C5)cc4)c3o2)c1`
Result: 152 °C

Q: Returns the measured melting point for the input compound. Input: `Fc1ccc(-c2nc(-c3ccccn3)cs2)cc1`
Result: 140 to 144 °C

Q: Given the compound `COc1cc2c(c(OC)c1OC)-c1cc3c(cc1COC2)OCO3` , what is its reported melting point?
Result: 154 to 156 °C

Q: Data request, read-out melting point, for COc1cc(OC)nc(Oc2cccc3c2C(=O)OC3C)n1 (stereo not given)
Result: 190 to 191 °C

Q: What value of melting point has been recorded for this entry: `O=c1[nH]c2ccc(C#CCCN3CCC(Cc4ccccc4)CC3)cc2[nH]1`
Result: 221 to 223 °C

Q: Returns the measured melting point for the input compound. Input: `Cn1c(-c2ccc3c(c2)C(C)(C)OC(=O)N3)ccc1[N+](=O)[O-]`
Result: 180 to 185 °C

Q: Which value of melting point has been reported for O=S(=O)(CC1CCN(CCC2CCOc3ccccc32)CC1)Nc1ccccc1 (stereo not given) in the records?
Result: 186 °C

Q: I'd like to know its melting point. The compound in question is `CCc1c(C)c(=O)n(-c2cc(OC(C)C)c(Cl)cc2F)c(=O)n1C`
Result: 88 to 91 °C

Q: Look up melting point for this compound: `COC(=O)c1sc2cccc(C#N)c2c1N`
Result: 169 to 170 °C

Q: For `CCCc1nc2c(N)nc3cc(C(F)(F)F)ccc3c2s1` , what is its reported melting point?
Result: 215 to 216 °C

Q: Could you tell me which melting point is on file for CC(=O)OC1CC(OC(C)=O)C2(C)C(C1)C(Br)C(Br)C1C3CCC(C(C)CCCC(C)C)C3(C)CCC12 (stereo not given) ?
Result: 155 to 156 °C

Q: For the compound CN1C(=O)CC=C2c3ccc(Cl)cc3CCC21 (stereo not given) , what melting point is on record?
Result: 99 °C

Q: Data request, read-out melting point, for `CCN(C(=O)C1CC1)c1cccc(-c2ccnc3c(C#N)cnn23)c1`
Result: 166 to 168 °C

Q: Please report the recorded melting point for `COC(=O)CCC(=O)Nc1cccc(Oc2nc3ccccc3s2)c1` .
Result: 78 to 82 °C

Q: Looking for the measured melting point of `Cc1ccc(Sc2c(-c3ccc(S(C)(=O)=O)cc3)cnn(-c3cccc(Cl)c3)c2=O)cc1` , can you help?
Result: 178 °C

Q: Quick check: melting point of `CCCCCCCCCCCCNC(=O)ON=C(C1=C(Br)C(=O)C(C)(C)O1)c1ccccc1` ?
Result: 61.5 to 62.5 °C

Q: Request the reported melting point associated with CC(=O)N1CCc2cc(CC(C)Br)cc([N+](=O)[O-])c21 (stereo not given)
Result: 119 to 120 °C

Q: Entry under review: NC(=O)c1sc2nc(N3CCC(NCC(O)c4cccnc4)CC3)cc(C(F)(F)F)c2c1N (stereo not given) . Reported melting point?
Result: 179 to 181 °C
